target: HIV reverse transcriptase (RNase H activity) (Human immunodeficiency virus type 1 group M subtype B, UniProt P04585); construct: HIV reverse transcriptase has an RNase H domain at the C-terminus of its p66 subunit; experiment: RNase H / HIV reverse transcriptase inhibition (fluorescent probe-target hybrid assay); conditions: inhibition of HIV reverse transcriptase / RNase H, Table I
pIC50: −log10 of the molar value.
The label depends only on pIC50: yes if it is at least 5, no if it is smaller.

[ask] Threshold query (pIC50 >= 5) on N#Cc1cccc(NC(=O)CSC(=S)N(Cc2ccccc2)Cc2ccccc2)c1
[reply] yes

Further cases:
[ask] In plain terms: is recorded pIC50 at least 5 for COc1ccc(C)cc1NC(=O)CSC(=S)N(Cc1ccccc1)Cc1ccccc1 ?
[reply] no

[ask] Reported pIC50 at or above 5? O=C(CSC(=S)N(Cc1ccccc1)Cc1ccccc1)Nc1ccc(Cl)cc1Cl
[reply] yes

[ask] Item O=C(CSC(=S)N(Cc1ccccc1)Cc1ccccc1)Nc1ccc(Cl)c(Cl)c1Cl with pIC50 of 5 or above?
[reply] yes

[ask] Form field: pIC50 at least 5? Entry: Cc1ccc(NC(=O)CSC(=S)N(Cc2ccccc2)Cc2ccccc2)c(C)c1
[reply] yes

[ask] Given the entry O=C(CSC(=S)N(Cc1ccccc1)c1ccccc1)Nc1ccc(Cl)c(Cl)c1Cl , answer whether its pIC50 meets or surpasses 5.
[reply] no

###

biological target: HIV Reverse transcriptase (RT) p66/p51, RDDP activity (Human immunodeficiency virus type 1 group M subtype B, UniProt P04585); construct: […]; purchased Worthington; assay: RNA dependent DNA polymerase (RDDP) activity of HIV RT, 33P TTP incorporation with polyrA-oligodT12-18; type: biochemical
metric-name: IC50

See these solved cases before continuing.
[ask] Specify measured IC50 for Cc1ccc(NC(=O)CSC(=S)N(Cc2ccccc2)Cc2ccccc2)c(C)c1 .
[reply] 30 µM

[ask] # return recorded IC50 for input COc1ccc(C)cc1NC(=O)CSC(=S)N(Cc1ccccc1)Cc1ccccc1
[reply] > 80 µM

Further cases:
[ask] State its IC50 for this compound: COc1ccc(C)cc1NC(=O)CSC(=S)N(Cc1ccccc1)c1ccccc1
[reply] > 80 µM

[ask] Return IC50 for the following compound: N#Cc1cccc(NC(=O)CSC(=S)N(Cc2ccccc2)c2ccccc2)c1
[reply] > 80 µM

###

biological target: HIV Reverse transcriptase (RT) p66/p51, RDDP activity (Human immunodeficiency virus type 1 group M subtype B, UniProt P04585); construct: […]; purchased Worthington; assay: RNA dependent DNA polymerase (RDDP) activity of HIV RT, 33P TTP incorporation with polyrA-oligodT12-18; assay type: biochemical
metric-name: IC50

Please review the following examples before continuing.
[ask] Output IC50 of N#Cc1cccc(NC(=O)CSC(=S)N(Cc2ccccc2)Cc2ccccc2)c1
[reply] > 80 µM

[ask] Give the reported IC50 for this compound. Cc1cn([C@H]2C[C@H](N=[N+]=[N-])[C@@H](CO)O2)c(=O)[nH]c1=O [AZT, zidovudine, reference compound]
[reply] < 0.2 µM

Next:
[ask] Supply reported IC50 belonging to this compound: O=C(CSC(=S)N(Cc1ccccc1)c1ccccc1)Nc1ccc(Cl)c(Cl)c1Cl
[reply] > 80 µM

[ask] Identify measured IC50 corresponding to O=C(CSC(=S)N(Cc1ccccc1)Cc1ccccc1)Nc1ccc(Cl)cc1Cl
[reply] > 160 µM

[ask] Respond only with IC50 recorded for O=C(CSC(=S)N(Cc1ccccc1)Cc1ccccc1)Nc1ccc(Cl)c(Cl)c1Cl
[reply] > 80 µM
